target or system: SOS1/KRAS WT (Homo sapiens (Human), UniProt Q07889)
Sequence (Q07889 564-1049): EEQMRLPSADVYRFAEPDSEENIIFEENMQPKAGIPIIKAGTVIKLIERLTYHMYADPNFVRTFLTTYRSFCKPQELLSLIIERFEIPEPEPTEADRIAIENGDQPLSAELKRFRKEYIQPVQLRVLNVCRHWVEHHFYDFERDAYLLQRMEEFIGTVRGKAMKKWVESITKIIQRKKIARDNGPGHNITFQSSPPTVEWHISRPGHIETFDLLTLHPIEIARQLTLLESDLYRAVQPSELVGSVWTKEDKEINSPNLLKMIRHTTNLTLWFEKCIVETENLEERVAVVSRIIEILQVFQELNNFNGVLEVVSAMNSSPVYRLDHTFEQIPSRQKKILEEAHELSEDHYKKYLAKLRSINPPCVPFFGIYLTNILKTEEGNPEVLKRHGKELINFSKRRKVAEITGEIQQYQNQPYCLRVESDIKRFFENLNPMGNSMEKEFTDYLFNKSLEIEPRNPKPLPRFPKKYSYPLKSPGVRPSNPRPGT
assay remarks: SOS1/KRAS WT HTRF binding assay (FRET-based protein-protein interaction)
condition notes: inhibition of His6-SOS1 (aa564-1049, 40 nM) binding to GST-KRAS-WT (aa1-188, 40 nM); at least two independent replicates; read-out: SOS1/KRAS WT HTRF Binding assay pIC50 (converted)
recorded endpoint: IC50 (nM)
One number for each entry, in nM.

Below: 2 compounds and their reported IC50.
compound: Cc1nnc(N[C@H](C)c2cccc(C(F)(F)C(C)(C)O)c2F)c2cc3c(cc12)C(C)(C)C(=O)N3C1CC1 [Compound 59]
target or system: SOS1/KRAS WT (Homo sapiens (Human), UniProt Q07889)
IC50 [nM]: 7.94
//
compound: Cc1nnc(N[C@H](C)c2cccc(C(F)(F)C(C)(C)O)c2F)c2cc3c(cc12)C(C)(C)C(=O)N3C(C)C [Compound 111]
target or system: SOS1/KRAS WT (Homo sapiens (Human), UniProt Q07889)
IC50 [nM]: 7.41

Dear colleague, could you send me IC50 for each of the items below? Thanks.
1. Cc1nnc(N[C@H](C)c2cccc(C(F)(F)C(C)(C)O)c2)c2cc3c(cc12)C1(CCOCC1)C(=O)N3C1CC1 [Compound 120]
2. CCOC1(C)C(=O)N(C)c2cc3c(C)nnc(N[C@H](C)c4cccc(C(F)(F)C(C)(C)O)c4C)c3cc21 (some centres unmarked) [Compound 185]
3. Cc1nnc(N[C@H](C)c2cccc(C(F)(F)F)c2)c2cc3c(cc12)OCC(=O)N3C [Compound 23]
4. Cc1nnc(N[C@H](C)c2cccc(C(F)(F)CO)c2F)c2cc3c(cc12)C(C)(C)C(=O)N3C(C)C [Compound 110]

10.5
24.5
44.7
7.08

Hello, I would appreciate it if you could give IC50 for each entry below.
1. Cc1nnc(N[C@H](C)c2cccc(C(F)(F)CO)c2)c2cc3c(cc12)n(C)c(=O)n3C1CC1 [Compound 70]
2. COC1(C)C(=O)N(C)c2cc3c(C)nnc(N[C@H](C)c4cccc(C(F)(F)CO)c4C)c3cc21 (some centres unmarked) [Compound 177]
3. COC1(C)C(=O)N(C)c2cc3c(C)nnc(N[C@H](C)c4cccc(C(F)(F)CO)c4F)c3cc21 (some centres unmarked) [Compound 176]
4. Cc1nnc(N[C@H](C)c2cccc(C(F)(F)F)c2)c2cc3c(cc12)n(C)c(=O)n3C1CCCC1 [Compound 2]

11.5
9.77
10.7
13.2

Form field: reported IC50 of Cc1nnc(N[C@H](C)c2cccc(C(F)F)c2F)c2cc3c(cc12)C(C)(C)C(=O)N3C1CC1 [Compound 62] 10.7

====

I'd be grateful if you could share measured IC50 for these entries.
target or system: SOS1/KRAS WT (Homo sapiens (Human), UniProt Q07889)
assay remarks: SOS1/KRAS WT HTRF binding assay (FRET-based protein-protein interaction)
condition notes: inhibition of His6-SOS1 (aa564-1049, 40 nM) binding to GST-KRAS-WT (aa1-188, 40 nM); at least two independent replicates; read-out: SOS1/KRAS WT HTRF Binding assay pIC50 (converted)
Give bare numbers, in µM.

compound: Cc1nnc(N[C@H](C)c2cccc(C(F)(F)C(C)(C)O)c2F)c2cc3c(cc12)C1(CCOCC1)C(=O)N3C1CC1
IC50, µM: 0.00631
//
compound: Cc1nnc(N[C@H](C)c2cccc(C(F)(F)CN)c2F)c2cc3c(cc12)n(C)c(=O)n3C
IC50, µM: 0.0162
//
compound: CCOC1(C)C(=O)N(C)c2cc3c(N[C@H](C)c4cccc(C(F)(F)C(C)(C)O)c4C)nnc(C)c3cc21 (stereo partly shown)
IC50, µM: 0.00912

Alright, here's another compound for you.
Would you mind telling me what IC50 value was observed for COCCn1c(=O)n(C)c2cc3c(C)nnc(N[C@H](C)c4cccc(C(F)F)c4F)c3cc21 ? 0.0123
